TESTED SYSTEM: SIRT1 (Homo sapiens)
Sequence (Q96EB6 1-747): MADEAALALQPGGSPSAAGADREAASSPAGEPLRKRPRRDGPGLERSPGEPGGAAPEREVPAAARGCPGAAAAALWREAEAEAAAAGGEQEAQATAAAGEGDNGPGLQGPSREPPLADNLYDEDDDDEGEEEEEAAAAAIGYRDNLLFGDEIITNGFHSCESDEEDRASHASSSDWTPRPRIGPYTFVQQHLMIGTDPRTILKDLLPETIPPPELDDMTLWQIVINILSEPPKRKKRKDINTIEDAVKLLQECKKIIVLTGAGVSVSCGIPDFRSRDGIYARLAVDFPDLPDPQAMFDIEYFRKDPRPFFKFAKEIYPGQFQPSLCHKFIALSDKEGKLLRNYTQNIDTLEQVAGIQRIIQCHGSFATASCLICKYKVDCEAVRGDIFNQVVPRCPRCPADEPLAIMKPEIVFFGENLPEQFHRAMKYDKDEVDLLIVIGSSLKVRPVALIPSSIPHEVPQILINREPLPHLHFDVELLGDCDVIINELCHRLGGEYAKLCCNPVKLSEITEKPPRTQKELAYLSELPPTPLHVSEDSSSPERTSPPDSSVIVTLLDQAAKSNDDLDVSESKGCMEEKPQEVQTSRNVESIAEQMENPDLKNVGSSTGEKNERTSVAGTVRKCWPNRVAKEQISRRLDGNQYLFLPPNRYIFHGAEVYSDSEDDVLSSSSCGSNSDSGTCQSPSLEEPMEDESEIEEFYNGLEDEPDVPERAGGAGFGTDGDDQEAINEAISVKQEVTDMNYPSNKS
METHOD NOTES: Trp mass spectrometry assay of SIRT1 activation
Type: biochemical
CONDITIONS: Trp mass spectrometry assay; EC1.5 = concentration of test compound that results in 150% activation of SIRT1
MEASURED ENDPOINT: Tryp AVG EC1.5 (μM)

{"MOLECULE": "O=C(Nc1cc(-c2cnco2)ccn1)N1c2nc(-c3cccc(C(F)(F)F)c3)ccc2N2CC[C@H]1C2 [Example 589]", "REPORTED MEASUREMENT": "A (A (EC1.5<1 μM))"}
{"MOLECULE": "O=C(Nc1cccc(C2CCNC2)c1)N1c2nc(-c3cccc(C(F)(F)F)c3)ccc2N2CC[C@H]1C2 (stereo partly shown) [Example 593]", "REPORTED MEASUREMENT": "A (A (EC1.5<1 μM))"}
{"MOLECULE": "Cc1cncc(-c2ccc3c(n2)N(C(=O)Nc2nc(C)c(C)s2)[C@H]2CCCN3C2)c1 [Example 507]", "REPORTED MEASUREMENT": "A (A (EC1.5<1 μM))"}

Origin of measurements: patent US9834558B2
